- TARGET_OF_ASSAY: Collagenase 3 (Homo sapiens)
ENDPOINT_LABEL: IC50 (µM)

MOL	TARGET_OF_ASSAY	DISPLAY_UNIT	IC50
O=C(O)CN1C(=O)/C(=C/c2ccc(OCc3ccccc3)cc2)SC1=S	Collagenase 3 (Homo sapiens)	µM	6.97

(P) O=C1NC(=S)S/C1=C\c1cccc(OCc2ccccc2)c1
(Q) O=C1NC(=S)S/C1=C\c1cccc(Oc2ccccc2)c1
(R) O=C1NC(=S)S/C1=C\c1ccc(Oc2ccccc2)cc1
## Task Please produce an ascending ranking of these compounds based on IC50. List labels; respect the requested ordering.
## Result R, P, Q

###

- TEST_SUMMARY: Antioxidant activity of the compound in AAPH solution assessed as trolox equivalents for reduction of oxidative degradation by ORAC assay
- Format: physicochemical
ENDPOINT_LABEL: Activity (µM)

MOL	Activity, µM
O=C1NC(=S)S/C1=C\c1cccc(Oc2ccccc2)c1	0.39

(A) O=C(O)CN1C(=O)/C(=C/c2ccc(Oc3ccccc3)cc2)SC1=S
(B) O=C1NC(=S)S/C1=C\c1ccc(Oc2ccccc2)cc1
## Task Min Activity? A | B State your choice using its label.
## Result B
(B: 0.52 µM, A: 0.76 µM)

###

- TEST_SUMMARY: Antioxidant activity of the compound in AAPH solution assessed as trolox equivalents for reduction of oxidative degradation by ORAC assay
- Type: physicochemical
ENDPOINT_LABEL: Activity (µM)

A selection of reference data follows.
MOL	DISPLAY_UNIT	Activity
O=C(O)CN1C(=O)/C(=C/c2cccc(Oc3ccccc3)c2)SC1=S	µM	0.61
O=C1NC(=S)S/C1=C\c1cccc(OCc2ccccc2)c1	µM	0.63
O=C1NC(=S)S/C1=C\c1ccc(OCc2ccccc2)cc1	µM	0.6

(1) O=C(O)CN1C(=O)/C(=C/c2cccc(OCc3ccccc3)c2)SC1=S
(2) O=C(O)CN1C(=O)/C(=C/c2ccc(OCc3ccccc3)cc2)SC1=S
## Task Quick check, higher Activity between 1 and 2 ? Your choice should be expressed through its label.
## Result 2
